target: wild-type human cardiac sodium channel, hNav1.5 (Homo sapiens); assay: Late INa screening assay (late sodium current, PatchXpress whole cell patch clamp); type: cell-based; details: compound at 10 μM; read-out: Late INa % blk
Sequence (Q14524 whole entry): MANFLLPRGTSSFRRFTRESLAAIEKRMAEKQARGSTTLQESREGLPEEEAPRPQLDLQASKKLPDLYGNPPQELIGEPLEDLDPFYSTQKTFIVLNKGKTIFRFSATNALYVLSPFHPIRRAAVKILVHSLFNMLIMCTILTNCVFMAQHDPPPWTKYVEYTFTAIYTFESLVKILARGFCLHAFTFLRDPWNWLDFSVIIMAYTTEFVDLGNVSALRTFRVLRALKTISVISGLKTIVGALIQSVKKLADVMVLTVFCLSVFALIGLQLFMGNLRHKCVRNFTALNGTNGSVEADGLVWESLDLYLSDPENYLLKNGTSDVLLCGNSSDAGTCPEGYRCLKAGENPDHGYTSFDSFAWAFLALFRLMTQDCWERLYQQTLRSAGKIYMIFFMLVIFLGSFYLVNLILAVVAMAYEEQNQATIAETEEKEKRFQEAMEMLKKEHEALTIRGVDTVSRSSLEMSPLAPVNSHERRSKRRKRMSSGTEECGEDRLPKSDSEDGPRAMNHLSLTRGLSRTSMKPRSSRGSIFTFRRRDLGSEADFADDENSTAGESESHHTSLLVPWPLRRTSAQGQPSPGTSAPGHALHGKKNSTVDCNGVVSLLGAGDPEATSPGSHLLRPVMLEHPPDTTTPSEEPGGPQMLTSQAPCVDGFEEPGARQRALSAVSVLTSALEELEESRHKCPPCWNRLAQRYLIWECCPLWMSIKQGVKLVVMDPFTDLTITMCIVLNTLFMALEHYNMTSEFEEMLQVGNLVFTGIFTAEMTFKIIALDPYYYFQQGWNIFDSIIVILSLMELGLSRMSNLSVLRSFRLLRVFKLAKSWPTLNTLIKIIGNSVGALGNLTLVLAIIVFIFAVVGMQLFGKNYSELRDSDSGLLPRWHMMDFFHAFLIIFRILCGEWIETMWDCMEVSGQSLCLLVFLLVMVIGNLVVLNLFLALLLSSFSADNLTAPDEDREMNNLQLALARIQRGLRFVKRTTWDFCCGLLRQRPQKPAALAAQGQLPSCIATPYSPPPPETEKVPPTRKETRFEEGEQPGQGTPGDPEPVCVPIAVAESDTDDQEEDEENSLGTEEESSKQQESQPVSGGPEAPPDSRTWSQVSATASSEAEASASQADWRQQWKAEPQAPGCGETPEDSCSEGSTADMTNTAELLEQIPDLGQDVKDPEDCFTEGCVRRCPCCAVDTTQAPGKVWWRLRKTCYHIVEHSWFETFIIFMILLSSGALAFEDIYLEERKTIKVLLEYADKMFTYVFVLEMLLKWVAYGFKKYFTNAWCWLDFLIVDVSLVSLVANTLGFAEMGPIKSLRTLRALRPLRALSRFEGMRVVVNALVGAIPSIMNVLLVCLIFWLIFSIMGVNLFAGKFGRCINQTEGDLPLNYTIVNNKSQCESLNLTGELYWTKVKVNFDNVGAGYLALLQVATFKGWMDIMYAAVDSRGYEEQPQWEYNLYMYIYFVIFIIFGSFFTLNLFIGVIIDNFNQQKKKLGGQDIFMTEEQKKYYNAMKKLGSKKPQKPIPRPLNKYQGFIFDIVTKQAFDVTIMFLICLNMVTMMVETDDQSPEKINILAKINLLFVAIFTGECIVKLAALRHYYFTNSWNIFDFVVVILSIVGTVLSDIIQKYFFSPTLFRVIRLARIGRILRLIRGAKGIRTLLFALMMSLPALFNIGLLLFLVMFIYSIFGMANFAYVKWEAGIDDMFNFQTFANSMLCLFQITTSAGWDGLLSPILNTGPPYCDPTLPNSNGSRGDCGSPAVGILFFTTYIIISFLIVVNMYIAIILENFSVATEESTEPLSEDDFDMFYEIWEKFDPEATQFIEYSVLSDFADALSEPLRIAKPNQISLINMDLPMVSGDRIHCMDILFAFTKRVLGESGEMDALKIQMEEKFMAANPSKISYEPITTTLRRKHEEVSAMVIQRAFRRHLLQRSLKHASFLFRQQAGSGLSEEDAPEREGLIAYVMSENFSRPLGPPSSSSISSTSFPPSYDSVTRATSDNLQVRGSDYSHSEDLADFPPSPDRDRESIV
We use 40% as the dividing line for inhibition at 10 µM: on or above the line is condition met, below is condition not met.

Threshold query (inhibition at 10 µM >= 40%) on CC1=C(C(=O)OCc2ccccc2)[C@@H](c2ccccc2-c2cccc(C(N)=O)c2)n2nnnc2N1 condition met

Threshold query (inhibition at 10 µM >= 40%) on CCOC(=O)C1=C(C)NC(C)=C(C(=O)OCC)C1c1ccc(CC)o1 condition met

Threshold query (inhibition at 10 µM >= 40%) on COc1ccc(-c2ccccc2C2C(C(=O)OCc3ccccc3)=C(C)Nc3nnnn32)cc1 (stereo not shown) condition met

The measurements presented in this section are drawn from patent US20090012103A1.
